# METHOD SUMMARY: Retention time of the compound by HPLC analysis
# Format: physicochemical
MEASURED ATTRIBUTE: Retention_time (min)

[
  {
    "MOLECULE": "CCc1cccc(CC)c1C(=O)N(CC)C[C@@](O)(CNC(=O)c1cnn(-c2ccc(F)cc2)c1N)C(F)(F)F",
    "Retention_time / min": 2.544
  },
  {
    "MOLECULE": "CCN(C[C@](O)(CNC(=O)c1cnn(-c2ccc(F)cc2)c1N)C(F)(F)F)C(=O)c1c(Cl)cccc1Cl",
    "Retention_time / min": 3.06
  },
  {
    "MOLECULE": "CCc1ccccc1C(=O)N(CC)C[C@@](O)(CNC(=O)c1cnn(-c2ccc(F)cc2)c1N)C(F)(F)F",
    "Retention_time / min": 2.353
  },
  {
    "MOLECULE": "CCN(C[C@@](O)(CNC(=O)c1cnn(-c2ccc(F)cc2)c1N)C(F)(F)F)C(=O)c1ccccc1C",
    "Retention_time / min": 2.179
  },
  {
    "MOLECULE": "CCN(C[C@@](O)(CNC(=O)c1cnn(-c2ccc(F)cc2)c1N)C(F)(F)F)C(=O)c1c(C)cccc1Cl (stereo in doubt; 10a)",
    "Retention_time / min": 2.314
  },
  {
    "MOLECULE": "CCN(C[C@@](O)(CNC(=O)c1cnn(-c2ccc(F)cc2)c1N)C(F)(F)F)C(=O)c1c(C)cccc1C",
    "Retention_time / min": 2.349
  },
  {
    "MOLECULE": "CCN(C[C@@](O)(CNC(=O)c1cnn(-c2ccc(F)cc2)c1N)C(F)(F)F)C(=O)c1c(C)cccc1F",
    "Retention_time / min": 2.279
  },
  {
    "MOLECULE": "CCN(C[C@@](O)(CNC(=O)c1cnn(-c2ccc(F)cc2)c1N)C(F)(F)F)C(=O)c1ccccc1F",
    "Retention_time / min": 2.249
  },
  {
    "MOLECULE": "CCc1cccc(Cl)c1C(=O)N(CC)C[C@@](O)(CNC(=O)c1cnn(-c2ccc(F)cc2)c1N)C(F)(F)F (stereo in doubt; 14b)",
    "Retention_time / min": 2.396
  },
  {
    "MOLECULE": "CCc1cccc(C)c1C(=O)N(CC)C[C@@](O)(CNC(=O)c1cnn(-c2ccc(F)cc2)c1N)C(F)(F)F (stereo in doubt; 13a)",
    "Retention_time / min": 2.394
  },
  {
    "MOLECULE": "CCN(C[C@@](O)(CNC(=O)c1cnn(-c2ccc(F)cc2)c1N)C(F)(F)F)C(=O)c1ccccc1",
    "Retention_time / min": 2.163
  },
  {
    "MOLECULE": "CCc1cccc(Cl)c1C(=O)N(CC)C[C@@](O)(CNC(=O)c1cnn(-c2ccc(F)cc2)c1N)C(F)(F)F (stereo in doubt; 14a)",
    "Retention_time / min": 2.39
  },
  {
    "MOLECULE": "CCN(C[C@@](O)(CNC(=O)c1cnn(-c2ccc(F)cc2)c1N)C(F)(F)F)C(=O)c1c(F)cccc1F",
    "Retention_time / min": 2.228
  },
  {
    "MOLECULE": "CCc1cccc(C)c1C(=O)N(CC)C[C@@](O)(CNC(=O)c1cnn(-c2ccc(F)cc2)c1N)C(F)(F)F (stereo in doubt; 13b)",
    "Retention_time / min": 2.417
  }
]
